Recorded TGI by entry
- System: SF-295 CNS
- assay.procedure: NCI tumour cell line growth inhibition, 384-well format
property.measured: TGI

[[record]]
line_notation = "CC[C@@]1(O)C(=O)OCc2c1cc1n(c2=O)Cc2c-1nc1cc(F)c(C)c3c1c2[C@@H](NC(=O)CO)CC3"
result_value = "< 10 nM"

[[record]]
line_notation = "COCCn1c2c([n+](Cc3cnccn3)c1C)C(=O)c1ccccc1C2=O"
result_value = "22.5 nM"

[[record]]
line_notation = "COc1cc(C)[nH]c(=O)c1CNC(=O)c1c(C)n([C@H](C)C2CCN(CC(F)(F)F)CC2)c2ccccc12"
result_value = "> 100000 nM"

[[record]]
line_notation = "C[C@]12CC[C@@H]3c4ccc(OC(=O)N(CCCl)CCCl)cc4CC[C@H]3[C@@H]1CC[C@@H]2OP(=O)(O)O"
result_value = "> 100000 nM"


====

Examples of compounds with documented TGI follow.
- Test system: HCT-15 colon
- assay.procedure: NCI tumour cell line growth inhibition, 384-well format
Numbered stars: 1 amine (or outer) side, 2 acyl side, 3 side chain; on linkers, the order of the positions; unused ones are H or OH. Bridge positions count the residues as written; N and C are the ends. Square brackets hold non-standard residues; d marks the D form. Peptide text beside a SMILES is read from it. I, II: the chains in the order shown. Actinocin(9to1) = Cc1c2oc3c(C)ccc(C(=O)[*:1])c3nc-2c(C(=O)[*:2])c(N)c1=O; aThr = C[C@H](O)[C@H](N)C(=O)O; NMeV = CN[C@H](C(=O)O)C(C)C; Sar = CNCC(=O)O
property.measured: TGI (µM)

[[record]]
compound = "Cc1c2oc3c(C)ccc(C(=O)N[C@@H]4C(=O)N[C@H](C(C)C)C(=O)N5CCC[C@H]5C(=O)N(C)CC(=O)N(C)[C@@H](C(C)C)C(=O)O[C@H]4C)c3nc-2c(C(=O)N[C@@H]2C(=O)N[C@H](C(C)C)C(=O)N3CCC[C@H]3C(=O)N(C)CC(=O)N(C)[C@@H](C(C)C)C(=O)O[C@H]2C)c(N)c1=O (I: [aThr][dV]P[Sar][NMeV] / II: [aThr][dV]P[Sar][NMeV]; ester I:1-I:C, II:1-II:C; linker I:N-II:N via Actinocin(9to1))"
unit_abbreviation = "µM"
relation_qualifier = "="
result_value = 0.069

[[record]]
compound = "C[C@]12CC[C@@H]3c4ccc(OC(=O)N(CCCl)CCCl)cc4CC[C@H]3[C@@H]1CC[C@@H]2OP(=O)(O)O"
unit_abbreviation = "µM"
relation_qualifier = ">"
result_value = 100

[[record]]
compound = "CC[C@@]1(O)C(=O)OCc2c1cc1n(c2=O)Cc2c-1nc1cc(F)c(C)c3c1c2[C@@H](NC(=O)CO)CC3"
unit_abbreviation = "µM"
relation_qualifier = "="
result_value = 1.18

[[record]]
compound = "NC1(C(=O)N[C@@H](CCO)c2ccc(Cl)cc2)CCN(c2ncnc3[nH]ccc23)CC1"
unit_abbreviation = "µM"
relation_qualifier = ">"
result_value = 100


====

- System: ACHN renal
- assay.procedure: NCI tumour cell line growth inhibition, 384-well format
Numbered stars: 1 amine (or outer) side, 2 acyl side, 3 side chain; on linkers, the order of the positions; unused ones are H or OH. Bridge positions count the residues as written; N and C are the ends. Square brackets hold non-standard residues; d marks the D form. Peptide text beside a SMILES is read from it. I, II: the chains in the order shown. Actinocin(9to1) = Cc1c2oc3c(C)ccc(C(=O)[*:1])c3nc-2c(C(=O)[*:2])c(N)c1=O; aThr = C[C@H](O)[C@H](N)C(=O)O; NMeV = CN[C@H](C(=O)O)C(C)C; Sar = CNCC(=O)O
Measured TGI accompanies every entry in the list below.
property.measured: TGI (nM)

[[record]]
molecule = "Cc1c2oc3c(C)ccc(C(=O)N[C@@H]4C(=O)N[C@H](C(C)C)C(=O)N5CCC[C@H]5C(=O)N(C)CC(=O)N(C)[C@@H](C(C)C)C(=O)O[C@H]4C)c3nc-2c(C(=O)N[C@@H]2C(=O)N[C@H](C(C)C)C(=O)N3CCC[C@H]3C(=O)N(C)CC(=O)N(C)[C@@H](C(C)C)C(=O)O[C@H]2C)c(N)c1=O (I: [aThr][dV]P[Sar][NMeV] / II: [aThr][dV]P[Sar][NMeV]; ester I:1-I:C, II:1-II:C; linker I:N-II:N via Actinocin(9to1))"
property_measured = "TGI"
unit_abbreviation = "nM"
relation_qualifier = "="
result_value = 16.5

[[record]]
molecule = "Cc1cnc(-c2ccc(-c3ccc(NC(=O)Nc4c(F)cc(F)cc4F)cc3F)c3c2C(=O)NC3)[nH]1"
property_measured = "TGI"
unit_abbreviation = "nM"
relation_qualifier = "="
result_value = 4520

[[record]]
molecule = "CC[C@@]1(O)C(=O)OCc2c1cc1n(c2=O)Cc2c-1nc1cc(F)c(C)c3c1c2[C@@H](NC(=O)CO)CC3"
property_measured = "TGI"
unit_abbreviation = "nM"
relation_qualifier = "="
result_value = 11.1

[[record]]
molecule = "COc1cc(C)[nH]c(=O)c1CNC(=O)c1c(C)n([C@H](C)C2CCN(CC(F)(F)F)CC2)c2ccccc12"
property_measured = "TGI"
unit_abbreviation = "nM"
relation_qualifier = ">"
result_value = 100000

[[record]]
molecule = "C[C@]12CC[C@@H]3c4ccc(OC(=O)N(CCCl)CCCl)cc4CC[C@H]3[C@@H]1CC[C@@H]2OP(=O)(O)O"
property_measured = "TGI"
unit_abbreviation = "nM"
relation_qualifier = ">"
result_value = 100000

